system-under-test: T1, cyno CD3e (Macaca fascicularis (cynomolgus monkey), UniProt Q95LI5)
T1 construct: not described; also called cynomolgus CD3ε; cynomolgus CD3
T1 sequence (CD3 epsilon, looked up): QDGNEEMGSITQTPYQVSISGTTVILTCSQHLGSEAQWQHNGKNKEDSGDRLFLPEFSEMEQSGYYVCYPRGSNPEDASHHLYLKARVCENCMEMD
protocol-description: kinetic Kd determination of the expressed scFv, method not named
readout-kind: koff (s⁻¹)
Please give a number only; it is taken to be in s⁻¹.

Anti-CD3, clone 6A2 (scFv, Expressed in Expi293 from the pcDNA3.4 His6 vector) scFv: EVQLVESGGGLVQPGGSLKLSCAASGFMFNKYAMNWVRQAPGKGLEWVARIRSKSNNYATYYADSVKDRFTISRDDSKNTAYLQMNNLKTEDTAVYYCVRHGNFGNSYISYWATWGQGTLVTVSSGGGGSGGGGSGGGGSQTVVTQEPSLTVSPGGTVTLTCGSSFGAVTSGNYPNWVQQKPGQAPRGLIGGTKLLAPGTPARFSGSLLGGKAALTLSGVQPEDEAEYYCVLWYSNSWVFGGGTKLTVLHHHHHH; 0.00222
Anti-CD3, clone 10E4 (scFv, Expressed in Expi293 from the pcDNA3.4 His6 vector) scFv: EVQLVESGGGLVQPGGSLKLSCAASGFTFNKYPMNWVRQAPGKGLEWVARIRSKYNNYATYYADSVKDRFTISRDDSKNTAYLQMNNLKNEDTAVYYCVRHGNFNNSYISYWAYWGQGTLVTVSSGGGGSGGGGSGGGGSQTVVTQEPSLTVSPGGTVTLTCGSSTGAVTKGNYPNWVQQKPGQAPRGLIGGTKMLAPGTPARFSGSLLGGKAALTLSGVQPEDEAEYYCALWYSNRWVFGGGTKLTVLHHHHHH; 0.0238
Anti-CD3, clone 3F2 (scFv, Expressed in Expi293 from the pcDNA3.4 His6 vector) scFv: EVQLVESGGGLVQPGGSLKLSCAASGFTYNKYAMNWVRQAPGKGLEWVARIRSKYNNYATYYADEVKDRFTISRDDSKNTAYLQMNNLKTEDTAVYYCVRHGNFGNSPISYWAYWGQGTLVTVSSGGGGSGGGGSGGGGSQTVVTQEPSLTVSPGGTVTLTCGSSKGAVTSGNYPNWVQQKPGQAPRGLIGGTKELAPGTPARFSGSLLGGKAALTLSGVQPEDEAEYYCTLWYSNRWVFGGGTKLTVLHHHHHH; 0.00438

Looking for the measured koff of Anti-CD3, clone 2G5 (scFv, Expressed in Expi293 from the pcDNA3.4 His6 vector) scFv: EVQLVESGGGLVQPGGSLKLSCAASGFTFNKYALNWVRQAPGKGLEWVARIRSKYNNYATEYADSVKDRFTISRDDSKNTAYLQMNNLKTEDTAVYYCVRHGNFGNSPISYWAYWGQGTLVTVSSGGGGSGGGGSGGGGSQTVVTQEPSLTVSPGGTVTLTCGSSTGAVTSGNYPNWVQQKPGQAPRGLIGGTNFLAPGTPERFSGSLLGGKAALTLSGVQPEDEAEYYCVLWYSNRWAFGGGTKLTVLHHHHHH , can you help?
0.111
